Molecular target: recombinant human 17β-HSD1 (Homo sapiens)
Construct: made in house; host or cells: Sf9 insect cells (baculovirus, Bac to Bac Expression System)
Sequence (P14061 1-328): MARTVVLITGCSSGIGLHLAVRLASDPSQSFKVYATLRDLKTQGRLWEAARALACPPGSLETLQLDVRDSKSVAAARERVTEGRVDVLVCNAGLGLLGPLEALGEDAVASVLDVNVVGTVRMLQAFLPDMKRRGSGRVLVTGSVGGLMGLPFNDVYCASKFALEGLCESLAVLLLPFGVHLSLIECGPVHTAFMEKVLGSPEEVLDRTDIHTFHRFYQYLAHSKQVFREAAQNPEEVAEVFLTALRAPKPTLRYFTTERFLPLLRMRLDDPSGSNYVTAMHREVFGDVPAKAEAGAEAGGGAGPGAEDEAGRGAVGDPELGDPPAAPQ
Experiment: Recombinant 17β-HSD1 assay (HPLC, 3H-estrone conversion)
Assay type: biochemical
Details: 0.5 h; 1 μm compound; 30 nM estrone, 1 mM NADPH, 30 min RT; read-out: Inhibition of rec. 17β-HSD1
Here the recorded inhibition at 1 µM is given for each entry.
Give just the number in %; leave the unit off.

The examples below pair each entry with its known result.
C[C@]12CC[C@@H]3c4ccc(Nc5cccc(S(=O)(=O)N6CCOCC6)c5)cc4CC[C@H]3[C@@H]1[C@@H](CCCC(=O)N1CCOCC1)CC2=O = 26
CCN(CC)C(=O)CC[C@@H]1CC(F)(F)[C@@]2(C)CC[C@@H]3c4ccc(B(O)O)cc4CC[C@H]3[C@H]12 = 85

Now consider the entry below.
Please supply the value of reported inhibition at 1 µM for the item C[C@]12CC[C@@H]3c4ccc(B(O)O)cc4CC[C@H]3[C@@H]1[C@H](CCC(=O)NCc1ccc(F)cc1F)CC2(F)F
63
